Assay: yeast display, Sf9 membrane polyspecificity reagent, FACS + sequencing; frameworks hold sequencing errors
assay_metric: polyreactivity (PSR sort gate)

seq_string	polyreactivity (PSR sort gate)
QVQLVESGGGLVQAGGSLRLSCAASGITSSYAMGWYRQAPGKERELVAAISRGGSTYYADSVKGRFTISRDTAKNTVYLQMNSLKPEDTAVYYCNKRRYPYGWGQGTQVTVSS	high polyreactivity
QVQLVESGGGLVQAGASLRLSCAASGSTFPVYAMGWYRQAPGKERELVAAITGSGARTYYADSVKVRFTISRDNAKNTVYLQMNSLKPEDTAVYYCAKRTVIAVYGYPYRYGMNYWGQGTKVTVSS	high polyreactivity
QVKLVESAGGLVQAGGSLRLSCSASAFIFGFNAMGWYRQEPGKERELVAAITWRGGRTSNADSVKGRFTISRDNAKNTVYLQMNSLKPEDTAVYYCAARRGTIVTRSRGYNYWGQGTQVTVSS	high polyreactivity
QVQLVESGGGLVQAGGSLRLSCAASGSIFYSNAMGWYRQAPGKERELVAAITLSGRRTYYADSVKGRFTISRDNAKNTVYLQMISLKPEDTADYYCATVPYKTGYKFEYWGQGTQVTVSS	high polyreactivity
QVQLVESGGGLVQAGGSLRLSCAASGRIFQKNAMGWYRQAPGKERELVAAISGSGSTTNYADSVKGRFTISRDNAKNTVYLQLNSLTPEDTAVYYCATGKRGVSGRGFRYDYWGQGTQVTVSS	high polyreactivity

For each listed entry, give its polyreactivity (PSR sort gate).
1. QVQLVESGGGLVQAGGSLRLSCAASGFTFTRYAMGWYRQAPGKERELVAAMTTNSGSRTYYADSVKGRFTISRDNAKNTVYGQMNSLKPEDTAVYYCAADGPVVRGYYWGQGTQVTVSS
2. QVQLVESGGGIVQAGGSLRLSCAASGRIFQFYAMGWYRQAPGKERELVAGITTSGGSTYYADSVKGRFTISRDNAKNTVYLQMNSLKPEDTAVYYCAASRHFARHRGYYFRYDYWGQGTQVTVSS
3. QVHLVESGGGLVQAGGSLRLSCAASGFTFSYYAMGWYRQPPGKERELVAAITTSGGRTYYADSVKGRFPISRDNAKNTVYLQMNSLKPEDTAVYYCAATYPRYYSGEFDYWGQGTQVTVSS
4. QVQLVESGGGLVQAGGSLRLSCAASGIIFNWYAMGWYRQAPGKERELVAAISGSGDITYYADSVKGRFTISRDNAKNTVYLQMNSLKPEDTAVYYCAADPWTYWEDYDYWGQGTQVTVSS
5. QVQLVESGGGLVQAGGSHRISCAASGRTFARYVMGWYRQAPGKERELVAAISRSGGTYYADSVKGRFTISRDNAKNTVYLQMNSLKPEDTAVYYCRIPSHGGVYWGQGTQVTVSS

["high polyreactivity", "high polyreactivity", "high polyreactivity", "low polyreactivity", "high polyreactivity"]

For every record below, what is its polyreactivity (PSR sort gate)?
1. QVQLVESGGGLVQAGGSLRLSCAASGRTFGYYVMGWSRQAPGKETELVAAISNTDSTYYADSVKGRFTISRDNAKNTVYLQMNSLKPEDTAVYYCARDDAYSDFDYDYWGQGTQVTVSS
2. QVQLVESGGGLVQAGGSLRLSCAASGSTIRYYAMGWYRQAPGKERELVAANTKSGGSTYYADSVKGRFTISRDNAKNTVYLQMNSPKPEDTAVYSCAAVRRWYYPALSEHDYWGQGTQVTVSS
3. QVQLVESGGGLVQAGGSHRLRCAASGLIIGDYGMGWYRQAPGKERELVAAITDRGGTTYYADSVKGRFTISRDNAKNTVYFQMNSLKPEDTAVYYCIARQSDIFDYDYWGQGSQVTVSS
4. QVQLVESGGGLVQAGGSLRLSCAASGFIYPYYAMGCYIQAPGKETELVAGISKSGGRTTYADSVKGRFTISRDNAKNTVYLQMNSLKPEDTAVYYCAAVYRAFPIYEDDYWGQGTQVTVSS

1. low polyreactivity
2. low polyreactivity
3. low polyreactivity
4. high polyreactivity

Reference source for all entries: the nanobody polyreactivity screen of Harvey et al. (2022)
